A collection of molecules and their measured EC50
Target: mouse TGR5 receptor (Mus musculus, UniProt Q80SS6)
Construct: expressed in transfected cells; host or cells: HEK293-EBNA (293 c18, ATCC CRL10852), Hygromycin B selection
Sequence (Q80SS6 whole entry): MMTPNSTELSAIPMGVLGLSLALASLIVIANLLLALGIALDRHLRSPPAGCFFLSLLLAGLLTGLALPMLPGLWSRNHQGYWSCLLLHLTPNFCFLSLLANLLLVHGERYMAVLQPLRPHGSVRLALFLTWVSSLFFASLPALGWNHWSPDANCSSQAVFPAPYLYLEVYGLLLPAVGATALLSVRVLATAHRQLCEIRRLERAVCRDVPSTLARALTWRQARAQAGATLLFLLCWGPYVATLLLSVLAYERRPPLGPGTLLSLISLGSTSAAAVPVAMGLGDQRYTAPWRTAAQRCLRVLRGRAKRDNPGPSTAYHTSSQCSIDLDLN
Test: Mouse TGR5 cAMP production assay (luminescent, DiscoveRx cAMP XS+)
Format: cell-based
Conditions: HEK293-EBNA cells overexpressing mouse TGR5, luminescent cAMP XS+; coded A-D; read-out: Mouse TGR5 Lum. cAMP Activity (EC50)

Please review the entries below; each comes with its answer.
MOLECULE: Cc1cncc(F)c1-c1cccc(C(C)(C)NS(=O)(=O)c2cccc(C(F)(F)F)c2)c1
STUDY SYSTEM: mouse TGR5 receptor (Mus musculus, UniProt Q80SS6)
EC50: 1 to 30 µM

MOLECULE: Cc1noc(C)c1-c1cccc(CNS(=O)(=O)c2ccc(Cl)c(C(F)(F)F)c2)c1
STUDY SYSTEM: mouse TGR5 receptor (Mus musculus, UniProt Q80SS6)
EC50: > 30 µM

MOLECULE: COc1cccc(S(=O)(=O)NCc2cccc(-c3c(C)noc3C)c2)c1
STUDY SYSTEM: mouse TGR5 receptor (Mus musculus, UniProt Q80SS6)
EC50: 1 to 30 µM

MOLECULE: COc1cnccc1-c1cccc(C(C)(C)NS(=O)(=O)c2cc(C(F)(F)F)ccc2OC)c1
STUDY SYSTEM: mouse TGR5 receptor (Mus musculus, UniProt Q80SS6)
EC50: 1 to 30 µM

MOLECULE: COc1cnccc1-c1cccc(C(C)(C)NS(=O)(=O)c2cccc(C(F)(F)F)c2)c1
STUDY SYSTEM: mouse TGR5 receptor (Mus musculus, UniProt Q80SS6)
EC50: 0.1 to 0.999 µM

# lookup: `O=S(=O)(NCc1cccc(-c2ccncc2)c1)c1cccc(Cl)c1` on mouse TGR5 receptor (Mus musculus, UniProt Q80SS6), EC50 = 1 to 30 µM

# lookup: `COc1cnccc1-c1cccc([C@H](C)NS(=O)(=O)c2cccc(Br)c2)c1` on mouse TGR5 receptor (Mus musculus, UniProt Q80SS6), EC50 = 1 to 30 µM

# lookup: `O=S(=O)(NCc1cccc(-c2ccncc2)c1)c1cccc(Br)c1` on mouse TGR5 receptor (Mus musculus, UniProt Q80SS6), EC50 = > 30 µM

# lookup: CCC(NS(=O)(=O)c1cccc(C(F)(F)F)c1)c1cccc(-c2ccncc2)c1 (centres unmarked) on mouse TGR5 receptor (Mus musculus, UniProt Q80SS6), EC50 = 1 to 30 µM

# lookup: `CC(C)(NS(=O)(=O)c1ccccc1C(F)(F)F)c1cccc(-c2ccncc2O)c1` on mouse TGR5 receptor (Mus musculus, UniProt Q80SS6), EC50 = 0.1 to 0.999 µM

# lookup: `O=S(=O)(NCc1cccc(-c2ccncc2)c1)c1cccc(C(F)(F)F)c1` on mouse TGR5 receptor (Mus musculus, UniProt Q80SS6), EC50 = 1 to 30 µM

# lookup: CCC(NS(=O)(=O)c1cccc(C(F)(F)F)c1)c1cccc(-c2ccncc2C)c1 (racemic) on mouse TGR5 receptor (Mus musculus, UniProt Q80SS6), EC50 = 0.1 to 0.999 µM

# lookup: `C[C@H](NS(=O)(=O)c1ccccc1[N+](=O)[O-])c1cccc(-c2ccncc2Cl)c1` on mouse TGR5 receptor (Mus musculus, UniProt Q80SS6), EC50 = 0.1 to 0.999 µM

# lookup: `Cc1cncc(C)c1-c1cccc(C(C)(C)NS(=O)(=O)c2cccc(C(F)(F)F)c2)c1` on mouse TGR5 receptor (Mus musculus, UniProt Q80SS6), EC50 = 1 to 30 µM

# lookup: `O=[N+]([O-])c1ccccc1S(=O)(=O)NCc1cccc(-c2ccncc2)c1` on mouse TGR5 receptor (Mus musculus, UniProt Q80SS6), EC50 = 1 to 30 µM

# lookup: `COc1cnccc1-c1cccc([C@@H](C)NS(=O)(=O)c2cccc(C(F)(F)F)c2)c1` on mouse TGR5 receptor (Mus musculus, UniProt Q80SS6), EC50 = 0.1 to 0.999 µM

# lookup: `O=S(=O)(NCc1cccc(-c2ccncc2)c1)c1cccc(F)c1` on mouse TGR5 receptor (Mus musculus, UniProt Q80SS6), EC50 = > 30 µM
